# TARGET: HLA-A*31:01
# TEST: IEDB peptide-MHC binding, purified MHC/competitive/radioactivity; filed as Kd, often an IC50 or EC50 that approximates it; bounds were set here for any values at or beyond the usual limits of such assays
# CONDITION NOTES: source organism: Dengue virus 1 Brazil/97-11/1997
Give Kd for every item shown.

[ask] Provide one value: measured Kd of MLNIMNRRKR
[reply] ≥ 60.8 µM

[ask] Provide one value: measured Kd of CTLPPLRFR
[reply] ≥ 77.9 µM

[ask] Provide one value: measured Kd of TALAFHLTTR
[reply] ≥ 39.8 µM

[ask] Provide one value: measured Kd of RKTFVELMRR
[reply] 0.0512 µM

[ask] Provide one value: measured Kd of MWQLMYFHR
[reply] ≥ 24.4 µM

* * *

Give Kd for every item shown.
# TARGET: HLA-A*30:02
# TEST: IEDB peptide-MHC binding, purified MHC/competitive/radioactivity; filed as Kd, often an IC50 or EC50 that approximates it; bounds were set here for any values at or beyond the usual limits of such assays
# CONDITION NOTES: source organism: Dengue virus 4 Philippines/H241/1956
I only need the number, in nM, no unit after it.

[ask] Provide one value: measured Kd of EKTKTDFGFY
[reply] 20.1

[ask] Provide one value: measured Kd of RFLGEDGCWY
[reply] 26.3

[ask] Provide one value: measured Kd of PSSVAARGY
[reply] 3230

* * *

# TARGET: HLA-A*01:01
# TEST: IEDB peptide-MHC binding, purified MHC/direct/fluorescence; filed as Kd, often an IC50 or EC50 that approximates it; bounds were set here for any values at or beyond the usual limits of such assays
# CONDITION NOTES: source organism: Brucella abortus
pKd: −log10 of the molar value.
MEASURED QUANTITY: pKd

[ask] Provide one value: measured pKd of RFRCVGPAP
[reply] ≤ 4.70

* * *

# TARGET: HLA-A*32:01
# TEST: IEDB peptide-MHC binding, purified MHC/competitive/radioactivity; filed as Kd, often an IC50 or EC50 that approximates it; bounds were set here for any values at or beyond the usual limits of such assays
# CONDITION NOTES: source organism: Vaccinia virus Copenhagen
MEASURED QUANTITY: Kd (nM)
I only need the number, in nM, no unit after it.

[ask] Provide one value: measured Kd of IHFMREYWF
[reply] 12400

[ask] Provide one value: measured Kd of YSIFLIFSI
[reply] 951

[ask] Provide one value: measured Kd of RQIFIHYSV
[reply] 1.04

* * *

Give pKd for every item shown.
# TARGET: HLA-A*68:02
# TEST: IEDB peptide-MHC binding, purified MHC/competitive/radioactivity; filed as Kd, often an IC50 or EC50 that approximates it; bounds were set here for any values at or beyond the usual limits of such assays
# CONDITION NOTES: source organism: Homo sapiens
pKd: −log10 of the molar value.

[ask] Provide one value: measured pKd of DLENRCQSL
[reply] ≤ 3.97

[ask] Provide one value: measured pKd of KLKNKHEAMI
[reply] 4.99

[ask] Provide one value: measured pKd of TLENERGEL
[reply] ≤ 4.67

* * *

# TARGET: HLA-A*24:03
# TEST: IEDB peptide-MHC binding, purified MHC/competitive/fluorescence; filed as Kd, often an IC50 or EC50 that approximates it; bounds were set here for any values at or beyond the usual limits of such assays
# CONDITION NOTES: source organism: Rickettsia sibirica 246
MEASURED QUANTITY: Kd

[ask] Provide one value: measured Kd of YLKKLDDFY
[reply] ≥ 20 µM

Where do these numbers come from? They come from the Immune Epitope Database (IEDB).
